pIC50: −log10 of the molar value.
These records show pIC50 for human Axl (473-end) (Homo sapiens).

These recorded examples may help you get a feel for the data.
# smi, assayed_target, pIC50
records = [
    ("Nc1ncc(-c2cnn(C3CCN(C(=O)c4ccccc4)CC3)c2)cc1-c1ncc(-c2ccc(Cl)cc2)o1", "human Axl (473-end) (Homo sapiens)", "> 6.30"),
    ("Nc1ncc(-c2cnn(C3CCN(C(=O)c4ccccc4)CC3)c2)cc1-c1ncc(-c2cccc(Cl)c2)o1", "human Axl (473-end) (Homo sapiens)", "> 6.30"),
    ("CC(C)(C)OC(=O)N1CCC(n2cc(-c3cnc(N)c(-c4nnc(-c5cccnc5)o4)c3)cn2)CC1", "human Axl (473-end) (Homo sapiens)", "6.00 to 6.30"),
    ("CCN1CCC(n2cc(-c3cnc(N)c(-c4nc(-c5ccccc5)no4)c3)cn2)CC1", "human Axl (473-end) (Homo sapiens)", "> 6.30"),
    ("Nc1ncc(-c2cnn(C3CCOCC3)c2)cc1-c1nc(-c2c(Cl)cccc2Cl)no1", "human Axl (473-end) (Homo sapiens)", "5.00 to 6.00"),
]

Query: Recall the recorded pIC50 for Nc1ncc(-c2cnn(C3CCOCC3)c2)cc1-c1noc(-c2ccccc2)n1 with human Axl (473-end) (Homo sapiens) and state it.
Reply: > 6.30

Query: Query for human Axl (473-end) (Homo sapiens): what pIC50 does the record show for Nc1ncc(-c2cnn(C3CCN(C(=O)C4CC4)CC3)c2)cc1-c1nc(-c2ccccc2)no1 ?
Reply: 5.00 to 6.00

Query: For the record CC(C)(C)OC(=O)N1CCC(n2cc(-c3cnc(N)c(-c4nnc(-c5ccc(C(C)(C)C)cc5)o4)c3)cn2)CC1 , what value of pIC50 is listed for human Axl (473-end) (Homo sapiens)?
Reply: 6.00 to 6.30

Query: Record lookup: for human Axl (473-end) (Homo sapiens), what pIC50 belongs to CC(=O)N1CCC(n2cc(-c3cnc(N)c(-c4nnc(-c5c(Cl)cccc5Cl)o4)c3)cn2)CC1 ?
Reply: > 6.30

Query: Give pIC50 (human Axl (473-end) (Homo sapiens)) of the following molecule: Nc1ncc(-c2cnn(C3CCNCC3)c2)cc1-c1nnc(-c2cnccn2)o1
Reply: > 6.30

Query: So what pIC50 did CC(=O)N1CCC(n2cc(-c3cnc(N)c(-c4nc(-c5ccccc5)no4)c3)cn2)CC1 get with human Axl (473-end) (Homo sapiens)?
Reply: > 6.30

Query: // fetch human Axl (473-end) (Homo sapiens) pIC50 for CC(C)(C)OC(=O)N1CCC(n2cc(-c3cnc(N)c(-c4ncc(-c5ccccc5)o4)c3)cn2)CC1
Reply: > 6.30

* * *

Quick reference for pIC50 among some compounds
# assayed_target: human Mer (578-872) (Homo sapiens, UniProt Q12866)
# Sequence (Q12866 578-872): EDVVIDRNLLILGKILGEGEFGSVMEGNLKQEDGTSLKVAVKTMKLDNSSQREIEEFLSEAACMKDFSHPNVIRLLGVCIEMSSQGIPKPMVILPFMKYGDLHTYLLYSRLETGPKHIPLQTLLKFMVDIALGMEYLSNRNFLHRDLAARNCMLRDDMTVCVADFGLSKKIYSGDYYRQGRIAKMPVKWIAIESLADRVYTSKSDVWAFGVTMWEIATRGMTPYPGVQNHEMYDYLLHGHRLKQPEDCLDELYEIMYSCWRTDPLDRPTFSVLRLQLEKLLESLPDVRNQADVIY
pIC50: −log10 of the molar value.

Below are worked cases with known answers.
# smi, experimental_endpoint, observed_value
rows = [
    ("Nc1ncc(-c2cnn(C3CCNCC3)c2)cc1-c1nnc(C2CCCCC2)o1", "pIC50", "> 6.30"),
    ("Nc1ncc(-c2cnn(C3CCN(C(=O)Cc4ccccc4)CC3)c2)cc1-c1nnc(-c2c(Cl)cccc2Cl)o1", "pIC50", "5.00 to 6.00"),
    ("Nc1ncc(-c2cn[nH]c2)cc1-c1noc(-c2ccccc2)n1", "pIC50", "5.00 to 6.00"),
    ("Nc1ncc(-c2cnn(C3CCCCC3)c2)cc1-c1nnc(-c2c(Cl)cccc2Cl)o1", "pIC50", "< 5.00"),
    ("CCN1CCC(n2cc(-c3cnc(N)c(-c4ncc(-c5ccccc5)o4)c3)cn2)CC1", "pIC50", "> 6.30"),
]

Query: So what's the measured pIC50 for this one? Nc1ncc(-c2cnn(C3CCNCC3)c2)cc1-c1noc(-c2ccccc2)n1
Reply: > 6.30

Query: May I ask what pIC50 has been recorded for Nc1ncc(-c2cnn(C3CCN(C(=O)c4ccc(F)cc4)CC3)c2)cc1-c1ncc(-c2cccc(Cl)c2)o1 ?
Reply: 5.00 to 6.00

Query: So what's the measured pIC50 for this one? CC(C)CCC(=O)N1CCC(n2cc(-c3cnc(N)c(-c4nnc(-c5c(Cl)cccc5Cl)o4)c3)cn2)CC1
Reply: > 6.30

Query: Which value of pIC50 has been reported for Nc1ncc(-c2cnn(C3CCNCC3)c2)cc1-c1ncc(-c2cccc(Cl)c2)o1 in the records?
Reply: > 6.30

Query: Any idea what pIC50 was measured for Nc1ncc(-c2cnn(C3CCN(C(=O)Cc4ccccc4)CC3)c2)cc1-c1nc(-c2ccccc2)no1 ?
Reply: 5.00 to 6.00

Query: Entry under review: Nc1ncc(-c2cnn(C3CCOCC3)c2)cc1-c1nc(-c2ccccc2)no1 . Reported pIC50?
Reply: < 5.00

Query: pIC50 for Nc1ncc(-c2cnn(C3CCNCC3)c2)cc1-c1ccc(-c2ccccc2)o1 ?
Reply: 6.00 to 6.30

Query: # pIC50 lookup, item Nc1ncc(-c2cn[nH]c2)cc1-c1nnc(-c2ccccc2)o1
Reply: 6.00 to 6.30

Query: Name the recorded pIC50 for Nc1ncc(-c2cnn(C3CCN(C(=O)C4CC4)CC3)c2)cc1-c1nnc(-c2c(Cl)cccc2Cl)o1 .
Reply: 5.00 to 6.00

Query: What value of measured pIC50 is listed for CC(=O)N1CCC(n2cc(-c3cnc(N)c(-c4ncc(-c5ccc(Cl)cc5)o4)c3)cn2)CC1 ?
Reply: < 5.00

Query: Quick check: pIC50 of Nc1ncc(-c2cnn(C3CCNCC3)c2)cc1-c1nnc(CC2CC2)o1 ?
Reply: > 6.30

Query: # get_value(readout='pIC50', item= Nc1ncc(-c2cnn(C3CCN(C(=O)Cc4ccccc4)CC3)c2)cc1-c1ncc(-c2ccc(Cl)cc2)o1 )
Reply: 5.00 to 6.00

Query: Could you tell me which pIC50 is on file for Nc1ncc(-c2cnn(C3CCNCC3)c2)cc1-c1nc(-c2c(Cl)cccc2Cl)no1 ?
Reply: > 6.30

* * *

# assayed_target: human Axl (473-end) (Homo sapiens)
# Sequence (P30530 473-894 limits assumed): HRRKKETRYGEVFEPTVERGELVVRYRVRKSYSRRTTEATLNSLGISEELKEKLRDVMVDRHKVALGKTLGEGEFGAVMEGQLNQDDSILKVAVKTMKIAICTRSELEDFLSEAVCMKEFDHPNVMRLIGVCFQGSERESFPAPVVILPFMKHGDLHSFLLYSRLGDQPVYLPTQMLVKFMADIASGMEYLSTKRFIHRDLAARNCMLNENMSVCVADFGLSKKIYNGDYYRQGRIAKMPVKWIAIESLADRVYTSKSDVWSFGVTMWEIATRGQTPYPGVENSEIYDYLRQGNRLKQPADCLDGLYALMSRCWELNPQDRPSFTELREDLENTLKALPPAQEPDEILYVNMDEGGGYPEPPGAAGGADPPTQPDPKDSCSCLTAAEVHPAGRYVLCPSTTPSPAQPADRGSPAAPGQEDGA
pIC50: −log10 of the molar value.
Collected pIC50 values appear next to each entry.

Consider the following illustrative entries.
# smi, observed_value
rows = [
    ("Nc1ncc(-c2cnn(C3CCN(C(=O)Cc4ccccc4)CC3)c2)cc1-c1ncc(-c2cccc(Cl)c2)o1", "> 6.30"),
    ("Nc1ncc(-c2cnn(C3CCOCC3)c2)cc1-c1ncc(-c2ccc(Cl)cc2)o1", "< 5.00"),
    ("CCCCCCCCCCCCN1CCC(n2cc(-c3cnc(N)c(-c4nc(-c5c(Cl)cccc5Cl)no4)c3)cn2)CC1", "5.00 to 6.00"),
]

Query: What value of pIC50 on human Axl (473-end) (Homo sapiens) does Nc1ncc(-c2ccn(C3CCNCC3)c2)cc1-c1nnc(-c2c(Cl)cccc2Cl)o1 have?
Reply: > 6.30

Query: Reported pIC50 for human Axl (473-end) (Homo sapiens), given Nc1ncc(-c2cnn(C3CCNCC3)c2)cc1-c1nnc(Cc2ccccc2)o1 ?
Reply: > 6.30

Query: Item Nc1ncc(-c2cnn(C3CCOCC3)c2)cc1-c1nc(-c2ccccc2)no1 with human Axl (473-end) (Homo sapiens) - pIC50?
Reply: < 5.00

Query: Checklist item: pIC50 tested on human Axl (473-end) (Homo sapiens), entry Nc1ncc(-c2cnn(C3CCCCC3)c2)cc1-c1noc(-c2ccccc2)n1 , value?
Reply: < 5.00

Query: Requested read-out pIC50, target or system human Axl (473-end) (Homo sapiens), entry CC(C)CCC(=O)N1CCC(n2cc(-c3cnc(N)c(-c4nnc(-c5c(Cl)cccc5Cl)o4)c3)cn2)CC1
Reply: > 6.30

Query: pIC50 of Nc1ncc(-c2cnn(C3CCCCC3)c2)cc1-c1nc(-c2ccccc2)no1 on human Axl (473-end) (Homo sapiens)?
Reply: 5.00 to 6.00
